Molecular target: Na+ channel (site 2)
Assay: Radioligand binding
measurement-kind: IC50
Note: a bare number is incomplete; add the unit.

(Q) Lookup: IC50 / Na+ channel (site 2) / CCC(CO)NCCOc1c(C)cccc1Cl (stereo not shown)
(A) 15 µM

* * *

Test: Tissue distribution
Format: in vivo, rats
Conditions: male, Wistar, rat; 5 mg/kg iv, Lungs
measurement-kind: Tmax (min)
Respond with the bare value in min.

(Q) Look at this compound and give its reported Tmax. CCC(CO)NCCOc1c(C)cccc1Cl (stereo not shown)
(A) 5

* * *

Biological target: Sigma (non-selective)
Experiment: Radioligand binding
measurement-kind: IC50

(Q) # returns recorded IC50 (system: Sigma (non-selective)) for CCC(CO)NCCOc1c(C)cccc1Cl (stereo not shown)
(A) 89 nM

* * *

Molecular target: CYP1A2 (Homo sapiens, UniProt P05177)
Construct: tissue celsis F008085-CST; host or cells: human liver microsomes
Sequence (P05177 whole entry): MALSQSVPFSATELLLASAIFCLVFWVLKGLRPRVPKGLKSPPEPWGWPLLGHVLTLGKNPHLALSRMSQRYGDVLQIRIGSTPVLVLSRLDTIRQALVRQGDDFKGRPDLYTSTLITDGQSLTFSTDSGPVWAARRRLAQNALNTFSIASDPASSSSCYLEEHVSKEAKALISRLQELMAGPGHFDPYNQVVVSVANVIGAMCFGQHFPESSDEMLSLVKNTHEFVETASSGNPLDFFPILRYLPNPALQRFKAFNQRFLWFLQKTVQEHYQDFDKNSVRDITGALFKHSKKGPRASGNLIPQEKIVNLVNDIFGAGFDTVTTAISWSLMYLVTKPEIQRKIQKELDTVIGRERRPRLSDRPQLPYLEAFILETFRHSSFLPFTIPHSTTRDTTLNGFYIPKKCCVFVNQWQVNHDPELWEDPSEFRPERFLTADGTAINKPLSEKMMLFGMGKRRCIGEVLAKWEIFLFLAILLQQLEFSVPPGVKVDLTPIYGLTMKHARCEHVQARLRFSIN
Experiment: Human cytochrome P450 inhibition (human liver microsomes)
Type: in vitro ADME
measurement-kind: Ki (µM)
Please state the figure in µM; there is no need to write the unit.

(Q) If you can, please state the reported Ki value of CCC(CO)NCCOc1c(C)cccc1Cl (stereo not shown) .
(A) 23

* * *

Biological target: Ca2+ channel (L, verapamil site) (phenylalkylamine)
Assay: Radioligand binding
measurement-kind: pKi
Note: pKi values are expressed as the negative base-10 logarithm of concentration in M.

(Q) Param item = CCC(CO)NCCOc1c(C)cccc1Cl (stereo not shown) [KM-408] ; retrieve measured pKi.
(A) 4.66

* * *

Test: Tissue distribution
Type: in vivo, rats
Settings: male, Wistar, rat; 5 mg/kg iv, Liver; read-out: λz (converted)
measurement-kind: k el (s⁻¹)
Write it as a number; the unit s⁻¹ goes unstated.

(Q) Entry CCC(CO)NCCOc1c(C)cccc1Cl (stereo not shown) [KM-408] has what k el?
(A) 0.000283

* * *

Target: hNav1.3 sodium channel (Homo sapiens)
Construct: host or cells: CHO cells
Sequence (Q9NY46 whole entry): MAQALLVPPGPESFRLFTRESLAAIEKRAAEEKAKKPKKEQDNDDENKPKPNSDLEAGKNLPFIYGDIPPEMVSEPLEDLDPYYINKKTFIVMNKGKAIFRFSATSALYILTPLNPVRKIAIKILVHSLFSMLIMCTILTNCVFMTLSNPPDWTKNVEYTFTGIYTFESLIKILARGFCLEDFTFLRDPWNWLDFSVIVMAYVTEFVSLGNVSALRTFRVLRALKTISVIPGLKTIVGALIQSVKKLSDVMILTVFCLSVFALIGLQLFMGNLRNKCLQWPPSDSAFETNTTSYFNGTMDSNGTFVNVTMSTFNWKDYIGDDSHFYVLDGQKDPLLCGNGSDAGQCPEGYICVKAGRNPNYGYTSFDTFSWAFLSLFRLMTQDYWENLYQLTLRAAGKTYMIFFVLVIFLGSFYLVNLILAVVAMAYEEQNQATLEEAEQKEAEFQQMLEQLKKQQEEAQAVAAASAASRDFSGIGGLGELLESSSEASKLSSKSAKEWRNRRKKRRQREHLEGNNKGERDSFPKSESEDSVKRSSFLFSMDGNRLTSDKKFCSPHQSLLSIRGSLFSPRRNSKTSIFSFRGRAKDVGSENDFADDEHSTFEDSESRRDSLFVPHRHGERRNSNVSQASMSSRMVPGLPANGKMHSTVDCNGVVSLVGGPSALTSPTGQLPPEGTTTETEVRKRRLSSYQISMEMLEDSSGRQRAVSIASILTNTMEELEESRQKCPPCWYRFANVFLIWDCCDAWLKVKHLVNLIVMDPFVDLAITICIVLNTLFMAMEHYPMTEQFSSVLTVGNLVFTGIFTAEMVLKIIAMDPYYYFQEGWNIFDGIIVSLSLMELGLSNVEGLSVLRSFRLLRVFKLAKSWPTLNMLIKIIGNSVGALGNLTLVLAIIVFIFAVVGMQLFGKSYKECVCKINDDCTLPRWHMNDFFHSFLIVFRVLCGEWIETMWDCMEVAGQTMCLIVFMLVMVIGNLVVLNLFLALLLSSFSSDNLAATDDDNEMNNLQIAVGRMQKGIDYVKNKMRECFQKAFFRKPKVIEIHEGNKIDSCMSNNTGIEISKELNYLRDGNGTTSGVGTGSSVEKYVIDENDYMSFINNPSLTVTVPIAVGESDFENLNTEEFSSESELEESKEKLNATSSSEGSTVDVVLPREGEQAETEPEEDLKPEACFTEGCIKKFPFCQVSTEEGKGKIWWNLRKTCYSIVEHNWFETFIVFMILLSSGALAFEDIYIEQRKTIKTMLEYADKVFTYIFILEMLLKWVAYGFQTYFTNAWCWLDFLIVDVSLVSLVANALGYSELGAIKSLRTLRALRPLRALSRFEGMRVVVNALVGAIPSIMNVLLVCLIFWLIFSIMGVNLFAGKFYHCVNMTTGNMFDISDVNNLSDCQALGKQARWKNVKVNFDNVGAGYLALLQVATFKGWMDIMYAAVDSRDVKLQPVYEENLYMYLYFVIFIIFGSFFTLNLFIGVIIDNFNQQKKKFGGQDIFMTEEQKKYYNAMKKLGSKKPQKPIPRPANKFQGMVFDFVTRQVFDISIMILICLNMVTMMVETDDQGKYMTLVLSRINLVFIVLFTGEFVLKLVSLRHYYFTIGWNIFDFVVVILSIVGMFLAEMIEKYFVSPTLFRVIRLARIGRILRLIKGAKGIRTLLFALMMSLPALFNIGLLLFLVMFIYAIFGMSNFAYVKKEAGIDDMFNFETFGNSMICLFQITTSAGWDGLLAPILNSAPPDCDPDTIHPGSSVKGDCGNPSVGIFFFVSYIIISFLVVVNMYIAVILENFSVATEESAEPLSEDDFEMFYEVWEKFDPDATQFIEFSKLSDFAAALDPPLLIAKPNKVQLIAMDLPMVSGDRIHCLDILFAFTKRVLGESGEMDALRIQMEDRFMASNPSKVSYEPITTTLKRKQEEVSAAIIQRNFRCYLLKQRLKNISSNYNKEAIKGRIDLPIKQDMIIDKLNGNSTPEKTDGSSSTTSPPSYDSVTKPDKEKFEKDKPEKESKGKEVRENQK
Assay: Nav channel electrophysiology (IonWorks Quattro)
Format: cell-based
Conditions: 10 Hz
measurement-kind: IC50 (µM)
Number only, in µM; omit the unit.

(Q) Any idea what IC50 was measured for CCC(CO)NCCOc1c(C)cccc1Cl (stereo not shown) [KM-408] ?
(A) 13.1

* * *

Target: hERG (Homo sapiens, UniProt Q12809)
Construct: purchased Eurofins CEREP
Test: Radioligand binding
Settings: read-out: % of control specific binding
measurement-kind: activity at 100 µM (%)
Give just the number in %; leave the unit off.

(Q) Short answer please: activity at 100 µM, hERG (Homo sapiens, UniProt Q12809), entry CCC(CO)NCCOc1c(C)cccc1Cl (stereo not shown)
(A) 26.1

* * *

Test: Tissue distribution;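 also: organ homogenates in PBS analysed by HPLC after FMOC-Cl derivatization, non-compartmental analysis, Kp as tissue over plasma AUC, half-life taken as ln2 divided by λz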
Assay type: in vivo, rats
Settings: male, Wistar, rat; 5 mg/kg iv, Liver; read-out: Kp (tissue-to-plasma AUC ratio)
measurement-kind: Kp
Please respond with just the number, no unit label.

(Q) Reported Kp, molecule CCC(CO)NCCOc1c(C)cccc1Cl (stereo not shown) : ____
(A) 0.14

* * *

Target: hNav1.2 sodium channel (Homo sapiens)
Construct: host or cells: CHO cells
Sequence (Q99250 whole entry): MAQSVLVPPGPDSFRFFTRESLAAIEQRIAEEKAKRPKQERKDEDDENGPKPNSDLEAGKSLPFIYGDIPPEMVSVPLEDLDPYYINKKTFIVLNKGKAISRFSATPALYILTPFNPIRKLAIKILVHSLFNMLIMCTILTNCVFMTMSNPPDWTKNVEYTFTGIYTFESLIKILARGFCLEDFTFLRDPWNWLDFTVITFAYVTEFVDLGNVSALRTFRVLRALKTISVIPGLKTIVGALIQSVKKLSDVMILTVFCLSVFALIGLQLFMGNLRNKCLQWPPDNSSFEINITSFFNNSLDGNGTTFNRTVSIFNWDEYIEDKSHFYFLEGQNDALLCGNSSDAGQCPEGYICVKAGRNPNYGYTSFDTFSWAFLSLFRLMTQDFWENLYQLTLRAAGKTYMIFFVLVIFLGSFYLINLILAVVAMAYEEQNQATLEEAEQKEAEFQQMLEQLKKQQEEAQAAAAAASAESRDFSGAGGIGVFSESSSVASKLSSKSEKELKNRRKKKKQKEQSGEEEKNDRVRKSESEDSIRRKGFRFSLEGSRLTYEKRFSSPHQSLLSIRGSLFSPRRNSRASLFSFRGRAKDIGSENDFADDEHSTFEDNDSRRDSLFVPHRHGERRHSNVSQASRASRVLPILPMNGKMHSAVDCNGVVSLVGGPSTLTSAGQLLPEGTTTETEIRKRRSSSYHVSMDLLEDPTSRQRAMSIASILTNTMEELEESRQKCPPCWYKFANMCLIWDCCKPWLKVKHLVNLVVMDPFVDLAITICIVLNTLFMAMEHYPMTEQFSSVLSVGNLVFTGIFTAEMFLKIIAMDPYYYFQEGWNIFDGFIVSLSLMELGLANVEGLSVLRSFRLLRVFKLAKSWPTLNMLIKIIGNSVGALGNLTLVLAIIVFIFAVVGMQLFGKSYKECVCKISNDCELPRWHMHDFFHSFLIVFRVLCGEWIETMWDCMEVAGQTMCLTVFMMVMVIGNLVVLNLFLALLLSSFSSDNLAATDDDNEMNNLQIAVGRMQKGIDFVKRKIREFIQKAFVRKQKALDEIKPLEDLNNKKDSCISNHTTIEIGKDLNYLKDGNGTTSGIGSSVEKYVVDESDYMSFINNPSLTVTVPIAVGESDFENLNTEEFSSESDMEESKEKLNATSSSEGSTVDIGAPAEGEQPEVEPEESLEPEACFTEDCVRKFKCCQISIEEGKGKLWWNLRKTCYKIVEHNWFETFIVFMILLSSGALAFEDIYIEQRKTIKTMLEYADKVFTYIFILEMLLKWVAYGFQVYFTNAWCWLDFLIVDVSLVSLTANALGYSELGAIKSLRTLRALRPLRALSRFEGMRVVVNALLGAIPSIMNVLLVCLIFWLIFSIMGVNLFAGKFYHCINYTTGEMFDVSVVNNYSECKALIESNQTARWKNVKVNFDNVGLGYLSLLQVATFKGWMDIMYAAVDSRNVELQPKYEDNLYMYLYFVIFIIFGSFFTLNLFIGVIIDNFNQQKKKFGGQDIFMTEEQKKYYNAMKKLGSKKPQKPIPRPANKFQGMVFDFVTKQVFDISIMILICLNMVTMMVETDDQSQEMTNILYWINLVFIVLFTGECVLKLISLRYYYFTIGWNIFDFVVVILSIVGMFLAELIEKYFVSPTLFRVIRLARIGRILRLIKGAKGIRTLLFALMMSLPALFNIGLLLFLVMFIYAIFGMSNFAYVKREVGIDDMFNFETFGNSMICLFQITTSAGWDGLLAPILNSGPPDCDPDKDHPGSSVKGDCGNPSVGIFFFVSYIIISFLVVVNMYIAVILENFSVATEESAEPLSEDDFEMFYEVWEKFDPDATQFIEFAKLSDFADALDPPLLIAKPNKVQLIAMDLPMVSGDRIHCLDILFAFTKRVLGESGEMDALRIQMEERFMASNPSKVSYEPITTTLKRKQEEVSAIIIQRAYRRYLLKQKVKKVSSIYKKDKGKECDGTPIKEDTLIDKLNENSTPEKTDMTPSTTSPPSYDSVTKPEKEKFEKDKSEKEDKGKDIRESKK
Assay: Nav channel electrophysiology (IonWorks Quattro)
Assay type: cell-based
Settings: Tonic block
measurement-kind: pIC50
pIC50 here: minus log base 10 of the concentration, concentration in moles per litre.

(Q) Give the measured pIC50 of CCC(CO)NCCOc1c(C)cccc1Cl (stereo not shown) .
(A) 4.31
